B1: ADD1 (parent)
chain: LRHSFQKQQREKTRWLNSGRGDEA

- Variants of: B1
- Method notes: protein stability index of a GFP-peptide fusion (GPS, HEK-293T) (PSI 1-6); higher = more stable;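 note: lentivirally expressed fusions sorted by FACS into six bins by GFP to DsRed ratio, PSI derived from sequencing read proportions per bin multiplied by bin number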
- Assay conditions: c terminus: a fixed tail appended
Each item that follows carries a reported protein stability index.
Readout label: protein stability index

In [3]: df
Out[3]:
    mutation_descriptor   val
 0                 E23A  3.98
 1                 N17R  2.49
 2                 D22V  3.25
 3                 N17Q  3.83
 4                  R2C  3.58
 5                 E23Q   3.2
 6                  H3P  3.77
 7                 E23R  3.49
 8                 S18R  2.63
 9                  R2G  3.97
10                  Q9H   3.7
11                  F5C  2.21
12                  R2A  4.17
13                 A24M  3.56
14                 L16C  4.06
15                  S4A  3.59
16                 W15N  4.54
17                 E23P  3.75
18                 D22W  1.99
19                 S18D  3.11
20                 G21F  3.39
21                 G19R  3.65
22                 R14M  3.42
23                 L16T  3.57
24                  K7T  3.67
25                  R2L     3
26                 R14P  3.86
27                 S18K  3.67
28                 L16A  3.66
29                 K12C  3.79
30                 A24D  3.95
31                  Q8L  3.05
32                 K12E  4.24
33                 E11Y  2.36
34                  H3F  3.14
35                 W15P  4.66
36                  Q9C  1.73
37                 N17S  3.88
38                 R10S  4.58
39                  Q9E  4.29
40                  Q6I  3.25
41                  L1S  4.35
42                 D22N  3.69
43                 T13G  4.07
44                 R20P  4.17
45                 L16E  4.72
46                 G19F  2.83
47                  R2Y  3.26
48                 E11R  3.65
49                 L16F  3.28
50                  K7N  4.21
51                 W15H  5.01
52                  S4F  2.92
53                  Q9T  3.83
54                 E23V  3.47
55                  L1W  2.92
56                  Q8H  3.41
57                 N17W  2.59
58                  Q8R  3.48
59                  Q8F  2.73
60                  F5W  3.44
61                  S4V  3.15
62                 E11G  3.27
63                 S18M  3.36
64                  Q8I  3.64
65                 W15F  4.05
66                 E11F  2.24
67                 A24N  4.03
68                 L16R  4.03
69                 E23L  2.38
70                 N17P  4.03
71                 E23Y  2.66
72                 R10T  3.83
73                  K7R  3.01
74                 A24Q  4.03
75                 N17F  3.14
76                  F5N  4.37
77                 W15K  4.08
78                 K12W  2.72
79                 R14W  3.25
80                  K7C   1.8
81                  R2I  3.06
82                 G21E  3.99
83                  K7E  4.33
84                 L16P  4.57
85                 W15V  3.97
86                 S18V  3.53
87                  K7H  3.53
88                 D22C  3.18
89                 R14L  3.02
90                 R20I  3.54
